Test system: goosegrass (Eleusine indica)
assay-info: Test C pre/postemergence
Assay type: in vivo
assay-context: Eleusine indica, post-emergence, Postemergence, 250 g ai/ha; scale 0 to 100; read-out: Plant response rating, Goosegrass
For each record, check the reported pest or weed control at 250 g/ha: if it is below 40% write Criterion met, else write Criterion not met.

Is pest or weed control at 250 g/ha of CCOC(=O)c1nc(-c2ccc(Cl)cc2)nc(N)c1Cl [Compound 64] strictly below 40%?
Criterion not met

Is pest or weed control at 250 g/ha of COC(=O)c1nc(C2CC2)nc(N)c1Cl [Compound 9] strictly below 40%?
Criterion not met

Is pest or weed control at 250 g/ha of CCOC(=O)c1nc(C2CC2)nc(NN)c1Br [Compound 42] strictly below 40%?
Criterion met

Is pest or weed control at 250 g/ha of Nc1nc(C2CC2)nc(C(=O)OCc2ccccc2)c1Br [Compound 22] strictly below 40%?
Criterion met

Is pest or weed control at 250 g/ha of COC(=O)c1nc(C(C)C)nc(N)c1Br [Compound 3] strictly below 40%?
Criterion met

---

Consider the following compounds; for each one, report its pest or weed control at 500 g/ha.
Test system: barnyardgrass (Echinochloa crus-galli)
assay-info: Test B pre/postemergence
Assay type: in vivo
assay-context: Echinochloa crus-galli, post-emergence, Postemergence, 500 g ai/ha; scale 0 to 100; read-out: Plant response rating, Barnyardgrass
Please respond with the number in % and leave the unit unwritten.

Give reported pest or weed control at 500 g/ha value for `COC(=O)c1nc(C2CC2)nc(N)c1F`
80

Give reported pest or weed control at 500 g/ha value for `CNc1nc(C2CC2)nc(C(=O)OC)c1Br`
90

Give reported pest or weed control at 500 g/ha value for `CCOC(=O)c1nc(C2CC2)nc(NN)c1Br`
30

Give reported pest or weed control at 500 g/ha value for `CCOC(=O)c1nc(C2CC2)nc(N)c1F`
80

Give reported pest or weed control at 500 g/ha value for `Nc1nc(C2CC2)nc(C=O)c1Br`
60

---

System: redroot pigweed (Amaranthus retroflexus)
assay-info: Test A pre/postemergence
Type: in vivo
assay-context: Preemergence, 500 g ai/ha; 0 to 100 scale where 0 is no effect and 100 is complete control; approximately ten days
Text: Seeds of barnyardgrass (Echinochloa crus-galli), crabgrass (Digitaria sanguinalis), giant foxtail (Setaria faberi), morningglory (Ipomoea spp.), redroot pigweed (Amaranthus retroflexus) and velvetleaf (Abutilon theophrasti) were planted into a blend of loam soil and sand and treated preemergence with a directed soil spray using test chemicals formulated in a non-phytotoxic solvent mixture which included a surfactant. […]
Response field class: string, computed from recorded Plant response rating, Pigweed by ranges group 1: < 10; group 2: ≥ 10 and < 90; group 3: ≥ 90

Lab log: `CCOC(=O)c1nc(-c2cc(Br)cc(OC)c2)nc(N)c1Cl` — assign Plant response rating, Pigweed category
group 1

Lab log: `Nc1nc(C2CC2)nc(C(=O)Oc2ccc(Cl)cc2)c1Cl` — assign Plant response rating, Pigweed category
group 2

Lab log: `CCOC(=O)c1nc(-c2ccccc2F)nc(N)c1Cl` — assign Plant response rating, Pigweed category
group 2

Lab log: `CCOC(=O)c1nc(-c2ccc(Cl)cc2)nc(N)c1I` — assign Plant response rating, Pigweed category
group 1

Lab log: `Nc1nc(-c2ccc(Br)cc2)nc(C(=O)O)c1Br` — assign Plant response rating, Pigweed category
group 3

Lab log: `CCOC(=O)c1nc(-c2ccc(Cl)c(Cl)c2)nc(N)c1Cl` — assign Plant response rating, Pigweed category
group 2

Lab log: `COC(=O)c1nc(-c2ccc(C)cc2)nc(N)c1Cl` — assign Plant response rating, Pigweed category
group 2

Lab log: `COC(=O)c1nc(-c2ccc(S(C)(=O)=O)cc2)nc(N)c1Cl` — assign Plant response rating, Pigweed category
group 1

Lab log: `Nc1nc(-c2ccc(F)cc2)nc(C(=O)O)c1Cl` — assign Plant response rating, Pigweed category
group 2

Lab log: `Cc1ccc(-c2nc(N)c(Cl)c(C(=O)O)n2)cc1F` — assign Plant response rating, Pigweed category
group 3

Lab log: `Cc1ccc(-c2nc(N)c(Br)c(C(=O)O)n2)cc1` — assign Plant response rating, Pigweed category
group 3

Lab log: Nc1nc(C2CC2)nc(C(=O)OCC2CCCO2)c1Cl (centres unmarked) — assign Plant response rating, Pigweed category
group 3

Lab log: `CC(C)=NOC(=O)c1nc(C2CC2)nc(N)c1Cl` — assign Plant response rating, Pigweed category
group 3

Lab log: `CCCOC(=O)c1nc(C2CC2)nc(N)c1Cl` — assign Plant response rating, Pigweed category
group 3

Lab log: `CCOC(=O)c1nc(-c2cccc(C(F)(F)F)c2)nc(N)c1Cl` — assign Plant response rating, Pigweed category
group 1

Lab log: `COC(=O)COc1nc(-c2ccc(Cl)cc2)nc(N)c1Cl` — assign Plant response rating, Pigweed category
group 1

Lab log: `COC(OC)c1nc(-c2ccc(I)cc2)nc(N)c1Cl` — assign Plant response rating, Pigweed category
group 1

# credit: patent US8802597B2
